- experimental-target: T1, Anti-CD28 Fab (SEQ ID NOs: 696, 697)
- T1 construct: In the phage ELISA the Fab was biotinylated and captured on neutravidin coated plates
- T1 sequence (VH, as listed by the source, chain 1 of 2): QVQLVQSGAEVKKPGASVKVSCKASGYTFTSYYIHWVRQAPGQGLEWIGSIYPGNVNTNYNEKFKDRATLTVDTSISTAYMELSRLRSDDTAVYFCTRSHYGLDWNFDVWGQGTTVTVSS
- T1 sequence (VL, as listed by the source, chain 2 of 2): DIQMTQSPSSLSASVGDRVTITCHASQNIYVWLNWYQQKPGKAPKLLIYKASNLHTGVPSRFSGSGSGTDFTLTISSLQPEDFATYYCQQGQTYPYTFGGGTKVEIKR
- protocol-details: phage binding ELISA; Fab-coated wells pre-incubated with CD28 antigen as competitor, phage detected with anti-M13 HRP
Where no end group is shown, it is not given here.
test-readout: Anti-CD28 Fab signal in the presence of CD28 (phage binding ELISA)

binder	value-reported
YCAGHTSEYMSKCL (cysteine pairing not given here; also: displayed as fusion to phage pIII, linker not given here) [Phage-1084]	0.07
YCEGHLDEYLQKCL (cysteine pairing not given here; also: displayed as fusion to phage pIII, linker not given here) [Phage-1076]	0.07
YCDGHMKEYMLKCL (cysteine pairing not given here; also: displayed as fusion to phage pIII, linker not given here) [Phage-1085]	0.06
YCDGHLQEYMQKCL (cysteine pairing not given here; also: displayed as fusion to phage pIII, linker not given here) [Phage-1077]	0.06
YCDGHLSIYMTKCL (cysteine pairing not given here; also: displayed as fusion to phage pIII, linker not given here) [Phage-1088]	0.07
YCDGHSETYLWKCL (cysteine pairing not given here; also: displayed as fusion to phage pIII, linker not given here) [Phage-1081]	0.1
YCEGHSQLYMAKCL (cysteine pairing not given here; also: displayed as fusion to phage pIII, linker not given here) [Phage-1080]	0.07
